assay: Toxicity liver stage against HepG2, at 10uM; assay type: cell-based; parameters: test concentration 10 uM, cell line HepG2-A16-CD81EGFP; details: human, HepG2-A16-CD81EGFP cells; read-out: INHIBITION
measurement_type: cytotoxicity at 10 µM (%)
Numeric only. Scale: %

The cases that follow already have their cytotoxicity at 10 µM on record.
1) CO[C@@H]1CN(S(=O)(=O)c2cn(C)cn2)[C@@H]2CCCO[C@@H]21    -125
2) CN1C(=O)CC(c2ccccc2)C12CCN(c1ncccn1)CC2 (stereo not drawn)    -99.4
3) Cc1ccccc1-n1ccc2nc(N3CCCC3)ncc2c1=O    -5.1
4) CC(=O)N1CCN(c2cnnc(N3CCCC3)c2)CC1    8.19
5) CN1CCC(NC(=O)c2cc(C3CCCCC3)nc3ccccc23)CC1    -1.25
6) COc1ccc(NC2(C(=O)N3CCn4cncc4C3)CCCC2)cc1    7.42

Any idea what cytotoxicity at 10 µM was measured for CCCC1(CO)CCCN(C(=O)CNC(C)=O)C1 (stereo not drawn) ?
3.43

Thanks! And CCc1cc(N2CC(N3CCCCC3C)C2)n2nccc2n1 (stereo not drawn) ?
-4.85

Thanks! And Cc1nn(C)c(C)c1C1CCCN1Cc1nc(-c2ccccn2)no1 (stereo not drawn) ?
-5.29

Thanks! And O=C(C1CCOC1)N1CCC2(CCN(Cc3nccs3)C2)CC1 (stereo not drawn) ?
-74.8

Thanks! And Cc1nn(C)c(C)c1C1COCCN1C(=O)c1cc(F)ccc1F (stereo not drawn) ?
3.38

----------
assay: Toxicity liver stage against HepG2, at 10uM; format: cell-based; parameters: test concentration 10 uM, cell line HepG2-A16-CD81EGFP; conditions: human, HepG2-A16-CD81EGFP cells; read-out: INHIBITION
measurement_type: cytotoxicity at 10 µM (%)
Numeric only. Scale: %

Any idea what cytotoxicity at 10 µM was measured for Cc1nc(-c2nnc[nH]2)sc1C(=O)N1CCCC1c1cccs1 (stereo unspecified) ?
11.1

Thanks! And Cn1cc(C(=O)NC2CCN(C(=O)NCC3CCSCC3)CC2)cn1 ?
4.02

Thanks! And CS(=O)(=O)NCCN1CCSCC1c1ccc(Cl)cc1 (stereo unspecified) ?
-3.7

Thanks! And CN(C)c1ccc(NC(=O)NCC2CCOC2)cn1 (stereo unspecified) ?
-6.8

----------
test: Toxicity liver stage against HepG2, at 10uM; assay type: cell-based; set-up: test concentration 10 uM, cell line HepG2-A16-CD81EGFP; details: human, HepG2-A16-CD81EGFP cells; read-out: INHIBITION
measurement_type: cytotoxicity at 10 µM
Record the result as number plus unit.

1) Cc1c(C(=O)N(C)CC(F)(F)F)nnn1-c1ccc(F)cc1    7.92%
2) CC(c1cc(F)ccc1F)N1CCN(Cc2nccn2C)CC1 (centres undefined)    -15.6%
3) Cc1cccc(C(=O)NCCCN2CCN(c3ccccc3)CC2)c1    7.67%
4) O=C(c1cccnc1N1CCOC(c2ccc(F)cc2)C1)N1CCCC1 (centres undefined)    8.04%
5) c1ccc(OC[C@]23COC[C@H]2CN(c2ncccn2)C3)nc1    -14.1%

Any idea what cytotoxicity at 10 µM was measured for O=c1[nH]ccc2cc(-c3cc(O)cc(CCC4CCCCN4)c3)ccc12 (centres undefined) ?
1.81%

----------
assay: Toxicity liver stage against HepG2, at 10uM; assay type: cell-based; parameters: test concentration 10 uM, cell line HepG2-A16-CD81EGFP; conditions: human, HepG2-A16-CD81EGFP cells; read-out: INHIBITION
measurement_type: cytotoxicity at 10 µM (%)
Numeric only. Scale: %

1) O=C(NC1(c2nnn(CC3CC3)n2)CCCC1)c1ccccc1    6.48
2) CCc1nc(CCNC(=O)Nc2ccc(C(=O)NC)cc2C)cs1    27.7

Any idea what cytotoxicity at 10 µM was measured for O=C(c1cccn1Cc1cccs1)N1CCCC1Cn1cccn1 (stereo unspecified) ?
-7.52

Thanks! And COc1c(C)cnc(CN2CCCC2Cn2nc(C)nc2C)c1C (stereo unspecified) ?
-3.21

Thanks! And CCC(=O)N1CCC1c1cc(NC2CCCC2)nc(C)n1 (stereo unspecified) ?
-7.61

Thanks! And Cc1cccc(-c2nc(C)nn2CC(=O)NCC(C)C)c1 ?
-27.9

Thanks! And CNC(=O)CN1CC[C@H]2CN(C(=O)c3ccccc3C)C[C@H]2C1 ?
0.793

Thanks! And Cc1cccc2c1nc(CCO)n2-c1ccc(C(=O)N2CCOCC2)o1 ?
3.69

Thanks! And CCC(=O)NCC(=O)NCC1(O)CCC(C(C)(C)C)CC1 (stereo unspecified) ?
6.93

Thanks! And COCCN1C(=O)CC(N2CCN(c3ccc(F)cc3)CC2)C1=O (stereo unspecified) ?
-9.26

Thanks! And O=C(Nc1c(N2CCCC2)cccc1N1CCCC1)c1ccccn1 ?
-25.7

----------
assay: Toxicity liver stage against HepG2, at 10uM; assay type: cell-based; set-up: test concentration 10 uM, cell line HepG2-A16-CD81EGFP; conditions: human, HepG2-A16-CD81EGFP cells; read-out: INHIBITION
measurement_type: cytotoxicity at 10 µM (%)
Numeric only. Scale: %

The cases that follow already have their cytotoxicity at 10 µM on record.
1) CC(NC(=O)c1cc(N2CCNC2=O)ccc1F)c1ccc(F)cc1 (configuration not stated)    5.89
2) Cc1cc(CN(C)C(=O)NC(C)Cc2ccc(O)cc2)no1 (configuration not stated)    4.93

Any idea what cytotoxicity at 10 µM was measured for O=C1NCCCCC1Sc1nnc(N2CCCC2)n1C1CC1 (configuration not stated) ?
1.4

Thanks! And CCCS(=O)(=O)N1CCC2(CN(c3ccccc3)C(=O)CN2C)C1 (configuration not stated) ?
4.15

Thanks! And CC(=O)N1CC2(CCNCC2)c2cc(C)ccc21 ?
-73.2

Thanks! And Cc1nccn1-c1ccc(C(C)NCc2cccn2C)cc1 (configuration not stated) ?
8.61

Thanks! And CN(C)c1nccc(C2CN(c3ccccc3)CCO2)n1 (configuration not stated) ?
-2.4

Thanks! And COCCNC(=O)CCn1ncc2c(Cl)cccc21 ?
10.5

----------
assay: Toxicity liver stage against HepG2, at 10uM; type: cell-based; set-up: test concentration 10 uM, cell line HepG2-A16-CD81EGFP; details: human, HepG2-A16-CD81EGFP cells; read-out: INHIBITION
measurement_type: cytotoxicity at 10 µM (%)
Numeric only. Scale: %

The cases that follow already have their cytotoxicity at 10 µM on record.
1. COc1ccc(-c2cnc(NC(C)=O)[nH]2)cc1    -0.825
2. Cc1nc(C)c(C(=O)NCCNc2ncccc2C#N)s1    -1.5
3. Cc1cc(C(=O)NCc2ccc(N3CCN(C)CC3)nc2)c(C)s1    -8.74
4. CCn1c(CN2CCOC(Cn3cncn3)C2)nc2c(F)cccc21 (stereo unspecified)    -5.42
5. CC(C)NC(=O)[C@@H]1C[C@H](N)CN1C(=O)c1cc2ccccc2[nH]c1=O    10.3
6. CS(=O)(=O)NCCC(=O)NCc1cccnc1-n1cnc2ccccc21    -0.0143
7. Cc1cc(F)c(S(=O)(=O)NCCCN2CCC(O)CC2)cc1F    -25.9
8. O=S(=O)(C/C=C/c1ccccc1)Cc1nc(C2CC2)no1    -12.4
9. COC(=O)CCC(=O)NC(C)Cc1ccccc1Br (stereo unspecified)    -6.66
10. CCN(C)c1ccc(CNS(=O)(=O)C2CCOCC2)cc1F    10.3

Any idea what cytotoxicity at 10 µM was measured for Cn1cc(CN2C[C@H]3CCC[C@@H](CNc4nccn4C)[C@H]3C2)cn1 ?
10.9

----------
assay: Toxicity liver stage against HepG2, at 10uM; assay type: cell-based; parameters: test concentration 10 uM, cell line HepG2-A16-CD81EGFP; conditions: human, HepG2-A16-CD81EGFP cells; read-out: INHIBITION
measurement_type: cytotoxicity at 10 µM (%)
Numeric only. Scale: %

The cases that follow already have their cytotoxicity at 10 µM on record.
1) COc1ccccc1CC(C)CC(=O)O (configuration not stated)    12.9
2) CCn1cnnc1C1CCN(C(=O)c2cccc(N(C)C)c2)CC1    1.54
3) CCN1CCC(N2CCN(c3cc(-c4nc(C)no4)ccn3)CC2)CC1    -3.79

Any idea what cytotoxicity at 10 µM was measured for Cc1ccc(CNCc2cccc3cccnc23)c(OC2CCOC2)c1 (configuration not stated) ?
1.42

Thanks! And CCCC(=O)N(C)CC(=O)Nc1ccc(Br)cn1 ?
-15.5

Thanks! And NC(=O)CN1CCC(C(=O)NCc2ccc3nonc3c2)CC1 ?
-0.969

Thanks! And COCCN(C)C[C@@H]1CN(C(=O)c2c(F)ccc(OC)c2F)C[C@@H]1CO ?
0.45

Thanks! And Cc1noc(C)c1CCC(=O)N1CCn2cccc2C1C (configuration not stated) ?
-0.376
